SYSTEM: hUGDHA136M (human UDP-glucose dehydrogenase A136M) (Homo sapiens, UniProt O60701, A136M)
Sequence (O60701 whole entry A136M): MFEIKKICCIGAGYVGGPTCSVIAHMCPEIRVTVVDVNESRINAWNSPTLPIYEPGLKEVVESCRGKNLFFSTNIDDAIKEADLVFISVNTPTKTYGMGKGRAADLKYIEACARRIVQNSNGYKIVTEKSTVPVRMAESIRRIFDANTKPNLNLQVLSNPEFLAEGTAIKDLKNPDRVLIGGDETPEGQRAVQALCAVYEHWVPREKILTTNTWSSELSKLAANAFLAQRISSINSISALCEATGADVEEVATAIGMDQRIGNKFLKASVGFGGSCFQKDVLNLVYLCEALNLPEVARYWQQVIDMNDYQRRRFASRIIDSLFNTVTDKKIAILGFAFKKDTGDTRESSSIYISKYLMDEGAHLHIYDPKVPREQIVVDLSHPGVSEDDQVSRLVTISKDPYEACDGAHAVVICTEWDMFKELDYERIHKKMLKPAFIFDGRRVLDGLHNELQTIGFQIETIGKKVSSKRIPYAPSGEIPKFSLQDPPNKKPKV
ASSAY TEXT: steady-state kinetics, global fit of competitive inhibition
PARAMETER MEASURED: pKi
// pKi is dimensionless: -log10 of concentration (M)

The value of pKi measured for the compound O=c1ccn([C@@H]2O[C@H](COP(=O)(O)OP(=O)(O)O[C@H]3OC[C@@H](O)[C@H](O)[C@H]3O)[C@@H](O)[C@H]2O)c(=O)[nH]1 [UDP-xylose] turned out to be 5.38
